Assay: The drug is tested on Enterobacter cancerogenus strain: ATCC35316 for biotransformation. The drug concentrations were measured before and after a 12-h incubation by liquid-chromatography-coupled mass spectrometry (LC–MS)
Conditions: 2 µM

COMPOUND: CC(C)(C)NC[C@H](O)COc1nsnc1N1CCOCC1.O=C(O)/C=C\C(=O)O [TIMOLOL MALEATE]
Bacterial Biotransformation: Compound NOT metabolized
//
COMPOUND: COc1c2occc2cc2ccc(=O)oc12
Bacterial Biotransformation: Compound NOT metabolized
//
COMPOUND: O=C1C(CC[S+]([O-])c2ccccc2)C(=O)N(c2ccccc2)N1c1ccccc1 (stereo unspecified)
Bacterial Biotransformation: Compound metabolized
//
COMPOUND: CC(=O)CC(c1ccccc1)c1c(O)c2ccccc2oc1=O (stereo unspecified)
Bacterial Biotransformation: Compound NOT metabolized
//
COMPOUND: COCCc1ccc(OCC(O)CNC(C)C)cc1.COCCc1ccc(OCC(O)CNC(C)C)cc1.O=C(O)C(O)C(O)C(=O)O (stereo unspecified) [METOPROLOL TARTRATE]
Bacterial Biotransformation: Compound NOT metabolized
//
COMPOUND: CCCCc1nc(Cl)c(CO)n1Cc1ccc(-c2ccccc2-c2nn[nH]n2)cc1
Bacterial Biotransformation: Compound NOT metabolized
//
COMPOUND: CCCC(=O)Nc1ccc(OCC(O)CNC(C)C)c(C(C)=O)c1 (stereo unspecified)
Bacterial Biotransformation: Compound NOT metabolized
//
COMPOUND: Cc1cn([C@H]2C[C@H](N=[N+]=[N-])[C@@H](CO)O2)c(=O)[nH]c1=O
Bacterial Biotransformation: Compound NOT metabolized
//
COMPOUND: CCN(CC)CCNC(=O)c1cc(S(C)(=O)=O)ccc1OC [TIAPRIDE]
Bacterial Biotransformation: Compound NOT metabolized
//
COMPOUND: CC[C@@]1(O)C(=O)OCc2c1cc1n(c2=O)Cc2cc3c(CN(C)C)c(O)ccc3nc2-1
Bacterial Biotransformation: Compound NOT metabolized
//
COMPOUND: COc1ccc(C(CN(C)C)C2(O)CCCCC2)cc1 (stereo unspecified)
Bacterial Biotransformation: Compound NOT metabolized
//
COMPOUND: CN(C/C=C/C#CC(C)(C)C)Cc1cccc2ccccc12
Bacterial Biotransformation: Compound NOT metabolized
//
COMPOUND: CN(C)C(=O)Oc1cc(OC(=O)N(C)C)cc(C(O)CNC(C)(C)C)c1 (stereo unspecified)
Bacterial Biotransformation: Compound NOT metabolized
//
COMPOUND: CCCCC(=O)N(Cc1ccc(-c2ccccc2-c2nnn[nH]2)cc1)[C@H](C(=O)O)C(C)C
Bacterial Biotransformation: Compound NOT metabolized
//
COMPOUND: CCOC(=O)[C@H](CCc1ccccc1)N[C@@H](C)C(=O)N1Cc2ccccc2C[C@H]1C(=O)O
Bacterial Biotransformation: Compound NOT metabolized
//
COMPOUND: COc1ccc(CN2CCNCC2)c(OC)c1OC.Cl.Cl [TRIMETAZIDINE DIHYDROCHLORIDE]
Bacterial Biotransformation: Compound NOT metabolized
//
COMPOUND: CC(C)(Oc1ccc(CCNC(=O)c2ccc(Cl)cc2)cc1)C(=O)O [BEZAFIBRATE]
Bacterial Biotransformation: Compound metabolized
//
COMPOUND: CCOc1ccc2nc(S(N)(=O)=O)sc2c1 [ETHOXZOLAMIDE]
Bacterial Biotransformation: Compound metabolized
//
COMPOUND: Cc1ccc(S(=O)(=O)NC(=O)NN2CCCCCC2)cc1 [TOLAZAMIDE]
Bacterial Biotransformation: Compound NOT metabolized
//
COMPOUND: CNCC[C@H](Oc1cccc2ccccc12)c1cccs1
Bacterial Biotransformation: Compound metabolized
//
COMPOUND: CN1CCc2cccc3c2[C@H]1Cc1ccc(O)c(O)c1-3
Bacterial Biotransformation: Compound NOT metabolized
//
COMPOUND: Nc1nc2ccc(OC(F)(F)F)cc2s1
Bacterial Biotransformation: Compound NOT metabolized
//
COMPOUND: CN1CCC(=C2c3ccccc3CC(=O)c3sccc32)CC1.O=C(O)/C=C/C(=O)O [KETOTIFEN FUMARATE]
Bacterial Biotransformation: Compound NOT metabolized
//
COMPOUND: CC(C)(C)NCC(O)c1cc(Cl)c(N)c(Cl)c1 (stereo unspecified)
Bacterial Biotransformation: Compound NOT metabolized
//
COMPOUND: CC(C)N(CCC(C(N)=O)(c1ccccc1)c1ccccn1)C(C)C.O=P(O)(O)O (stereo unspecified) [DISOPYRAMIDE PHOSPHATE]
Bacterial Biotransformation: Compound NOT metabolized
//
COMPOUND: NC(=O)N1c2ccccc2CC(=O)c2ccccc21 [OXCARBAZEPINE]
Bacterial Biotransformation: Compound metabolized
//
COMPOUND: O=C(NCc1ccccc1)OCCO [BURAMATE]
Bacterial Biotransformation: Compound NOT metabolized
//
COMPOUND: O=P1(N(CCCl)CCCl)NCCCO1 (stereo unspecified) [CYCLOPHOSPHAMIDE ANHYDROUS]
Bacterial Biotransformation: Compound NOT metabolized
//
COMPOUND: CCN1CCCC1CNC(=O)c1cc(S(=O)(=O)CC)c(N)cc1OC (stereo unspecified) [AMISULPRIDE]
Bacterial Biotransformation: Compound NOT metabolized
//
COMPOUND: CCOc1cc(CC(=O)N[C@@H](CC(C)C)c2ccccc2N2CCCCC2)ccc1C(=O)O [REPAGLINIDE]
Bacterial Biotransformation: Compound NOT metabolized
//
COMPOUND: C#C[C@]1(OC(C)=O)CC[C@H]2[C@@H]3CCC4=C[C@@H](OC(C)=O)CC[C@@H]4[C@H]3CC[C@@]21C [ETHYNODIOL DIACETATE]
Bacterial Biotransformation: Compound NOT metabolized
//
COMPOUND: O=c1n(CCCN2CCN(c3cccc(Cl)c3)CC2)nc2ccccn12
Bacterial Biotransformation: Compound NOT metabolized
//
COMPOUND: COc1ccc2[nH]c([S+]([O-])Cc3ncc(C)c(OC)c3C)nc2c1 (stereo unspecified)
Bacterial Biotransformation: Compound metabolized
//
COMPOUND: O=c1[nH]c2ccccc2n1C1CCN(CCCC(c2ccc(F)cc2)c2ccc(F)cc2)CC1 [PIMOZIDE]
Bacterial Biotransformation: Compound NOT metabolized
//
COMPOUND: CCN(C)C(=O)Oc1cccc([C@H](C)N(C)C)c1.O=C(O)C(O)C(O)C(=O)O [RIVASTIGMINE TARTRATE]
Bacterial Biotransformation: Compound NOT metabolized
//
COMPOUND: N#Cc1ccc(C(c2ccc(C#N)cc2)n2cncn2)cc1
Bacterial Biotransformation: Compound NOT metabolized
